# Condition Context: in propylene glycol, 333.9 K
Recorded Endpoint: solubility (mole fraction)
# print the numeric value only

Reported solubility (mole fraction) ( `CC(=O)Oc1ccccc1C(=O)O` ) = 0.145

----------
# Condition Context: in acetone, 290.6 K
Recorded Endpoint: solubility (mole fraction)
Could you keep your reply to the number by itself?

# solubility (mole fraction) of `CC(=O)Oc1ccccc1C(=O)O` = 0.075

----------
# Condition Context: in propylene glycol, 313.6 K
Recorded Endpoint: solubility (mole fraction)
Response field accepts a number only; no unit should be typed.

Lookup result for `CC(=O)Oc1ccccc1C(=O)O` ; measured solubility (mole fraction): 0.056

----------
# Condition Context: in isopropanol, 281.6 K
Recorded Endpoint: solubility (mole fraction)
Respond numerically, and do not add a unit to the figure.

solubility (mole fraction) in this record for `CC(=O)Oc1ccccc1C(=O)O` : 0.013

Source of measurements: BigSolDB 2.1
